assay: soluble on expression in E. coli; label from the status in PepcDB or PDB records

{"sequence_chain": "MSIRDERKQQSRQALLDAALQLSTGGRSFSSISLREVAREVGLVPTAFYRHFQDMDALGQELVDQVALHIKSLIHQLGQSYLQQVSTHPDSSIELFFQAINHSPLEWQFMIAERWGGSAAVRQAIAREIEDLIEDLATDLRKLPMFEHIQDSQDLKVLSTILINLSFTWAMTWLSLASQYQDAALSQHQQQFVENANTQIRLMFRGVANWG", "soluble on expression in E. coli": "not soluble"}
{"sequence_chain": "QTLTEEEVLKKLDKEQMRASFEDMRRIMPDLGFEAKGYALSFEQLAQLKIPVIVYLKYRKDDHFSVLRGIDGNTVLLADPSLGHVSMSRAQFLDAWQTREGNLAGKILAVIPKKAETISNKLFFTQHPKRQTEFTVGQIRQARAE", "soluble on expression in E. coli": "not soluble"}
{"sequence_chain": "MNEADMLFSVTVPGSTANLGPGFDSVGMALSRYLKLTVFESDKWSFEAETETVAGIPAGTDNLIYQVAKRTADLYGKEMPPVHVKVWSDIPLARGLGSSAAAIVAAIELADELCGLKLSEADKLHLASLEEGHPDNAGASLVGGLVIGLHEDDETQMIRVPNADIDVVVVIPFYEVLTRDARDVLPKEFPYADAVKASAVSNILIAAIMSKDWPLVGKIMKKDMFHQPYRAMLVPELSKVEHVAEMKGAYGTALSGAGPTILVMTEKGKGEELKEQLALHFPHCEVDALTVPKEGSIIERNPLYQVKSV", "soluble on expression in E. coli": "not soluble"}
